system: B. fragilis; assay: Antimicrobial assay (MIC, microtiter broth dilution); format: cell-based; details: strain 25285
Parameter MIC B. fragilis 25285: see the listing below.
measurement kind: MIC B. fragilis 25285 (µg/mL)

>>> reported_measurement("NC(N)=NC(Cc1ccccc1)C(=O)NCCCCCCCNC(=O)C(Cc1ccccc1)N=C(N)N (stereo not shown) [Compound 6]")
256
>>> reported_measurement("N=C(N)NC(Cc1ccccc1)C(=O)Nc1ccc(C=Cc2ccc(NC(=O)C(N)Cc3ccccc3)cc2)cc1 (stereo not shown) [Compound 24]")
8
>>> reported_measurement("N=C(N)NC(Cc1ccc(F)cc1)C(=O)NCCCCCCCCCCCCNC(=O)C(Cc1ccc(F)cc1)NC(=N)N (stereo not shown) [Compound 11]")
2
>>> reported_measurement("N=C(N)NC(Cc1ccc(O)cc1)C(=O)NCCCCCCCCCCCCNC(=O)C(Cc1ccc(O)cc1)NC(=N)N (stereo not shown) [Compound 4]")
256

* * *

tested on: S. aureus; assay: Antimicrobial assay (MIC, microtiter broth dilution); format: cell-based; settings: strain 29213 (Tables II-V)
measurement kind: MIC S. aureus 29213 (µg/mL)

>>> reported_measurement("NC(Cc1ccc(F)cc1)C(=O)NCCCCCCCCCCCCNC(=O)C(N)Cc1ccc(F)cc1 (centres unmarked)")
4
>>> reported_measurement("NC(N)=NC(Cc1ccccc1)C(=O)NCCCCCCCCCCCCNC(=O)C(Cc1ccccc1)N=C(N)N (centres unmarked)")
1
>>> reported_measurement("N=C(N)NCCCCCCCCCCCCNC(=N)N [Compound 36, 1,12 [bisguanyl]diaminododecane]")
8

* * *

test system: S. aureus; experiment: Antimicrobial assay (MIC, microtiter broth dilution); type: cell-based; details: Table VI
Parameter MIC Staph: see the listing below.
measurement kind: MIC Staph

>>> reported_measurement("CCCCCCCCN(CCCCCCCC)C(=O)CCNC(=O)CC(O)CNC(=N)N (stereo not shown)")
"2 µg/mL"
>>> reported_measurement("CCCCCCCCN(CCCCCCCC)C(=O)C(N)Cc1ccccc1 (stereo not shown) [Compound 81, Phe-dioctylamide]")
"4 µg/mL"
>>> reported_measurement("CCCCCN(CCCCC)C(=O)C(Cc1ccccc1)NC(=N)N (stereo not drawn) [Compound 67, N^α -Amidino-Phe-dipentylamide]")
"4 µg/mL"
>>> reported_measurement("CCCCCCCCN(CCCCCCCC)C(=O)C(Cc1ccc2ccccc2c1)N=C(N)N (stereo not drawn) [Compound 73, N^α -Amidino-β-Nal-dioctylamide]")
"4 µg/mL"
>>> reported_measurement("CCCCCCCCN(CCCCCCCC)C(=O)C(Cc1c[nH]c2ccccc12)NC(=N)N (stereo not drawn) [Compound 66, N^α -Amidino-Trp-dioctylamide]")
"8 µg/mL"
>>> reported_measurement("CCCCCCCCN(CCCCCCCC)C(=O)C(CC1CCCCC1)NC(=N)N (stereo not drawn) [Compound 74, N^α -Amidino-Cha-dioctylamide]")
"2 µg/mL"
>>> reported_measurement("CCCCCCCCN(CCCCCCCC)C(=O)C(Cc1ccccc1)NCc1ncc[nH]1 (stereo not shown)")
"2 µg/mL"

* * *

system: P. aeruginosa; experiment: Antimicrobial assay (MIC, microtiter broth dilution); type: cell-based; conditions: Table VI
Parameter MIC Psuedo: see the listing below.
measurement kind: MIC Psuedo

>>> reported_measurement("CCCCCN(CCCCC)C(=O)C(Cc1ccccc1)NC(=N)N (stereo not drawn) [Compound 67, N^α -Amidino-Phe-dipentylamide]")
"128 µg/mL"
>>> reported_measurement("CCCCCCN(CCCCCC)C(=O)C(Cc1ccccc1)NC(=N)N (stereo not drawn) [Compound 68, N^α -Amidino-Phe-dihexylamide]")
"16 to 64 µg/mL"
>>> reported_measurement("CCCCCCCCN(CCCCCCCC)C(=O)C(Cc1ccccc1)NCc1ncc[nH]1 (stereo not shown)")
"> 256 µg/mL"
>>> reported_measurement("CCCCCCCCN(CCCCCCCC)C(=O)C(Cc1ccc2ccccc2c1)N=C(N)N (stereo not drawn) [Compound 73, N^α -Amidino-β-Nal-dioctylamide]")
"> 256 µg/mL"
>>> reported_measurement("N=C(N)NC(Cc1ccccc1)C(=O)NC1CCCCC1 (stereo not drawn) [Compound 77, N^α -Amidino-Phe-cyclohexylamide]")
"> 256 µg/mL"
>>> reported_measurement("CCCCCCCCN(CCCCCCCC)C(=O)C(N)Cc1ccccc1 (stereo not shown) [Compound 81, Phe-dioctylamide]")
"> 256 µg/mL"
>>> reported_measurement("N=C(N)NC(CCC(=O)NC12CC3CC(CC(C3)C1)C2)C(=O)NC12CC3CC(CC(C3)C1)C2 (stereo not drawn) [Compound 86, N^α -Amidino-Glu-(α,γ) diadamantanamide]")
"128 µg/mL"

* * *

Parameter MIC L. fermentum 23271: see the listing below.
system: L. fermentum; assay: Antimicrobial assay (MIC, microtiter broth dilution); assay type: cell-based; conditions: strain 23271
measurement kind: MIC L. fermentum 23271

>>> reported_measurement("N=C(N)NC(Cc1ccc(F)cc1)C(=O)NCCCCCCCCCCCCNC(=O)C(Cc1ccc(F)cc1)NC(=N)N (stereo not shown)")
"1 µg/mL"
>>> reported_measurement("NC(N)=NC(Cc1ccccc1)C(=O)NCCCCCCCNC(=O)C(Cc1ccccc1)N=C(N)N (stereo not shown)")
"64 µg/mL"
>>> reported_measurement("N=C(N)NC(Cc1ccc(O)cc1)C(=O)NCCCCCCCCCCCCNC(=O)C(Cc1ccc(O)cc1)NC(=N)N (stereo not shown)")
"4,8 μg/ml"
>>> reported_measurement("N=C(N)NC(Cc1ccccc1)C(=O)Nc1ccc(C=Cc2ccc(NC(=O)C(N)Cc3ccccc3)cc2)cc1 (stereo not shown)")
"4 µg/mL"

* * *

system: S. aureus; assay: Antimicrobial assay (MIC, microtiter broth dilution); format: cell-based; conditions: Table VI
Parameter MIC Staph: see the listing below.
measurement kind: MIC Staph

>>> reported_measurement("N=C(N)NC(Cc1ccccc1)C(=O)Nc1ccc(C=Cc2ccc(NC(=O)C(Cc3ccccc3)NC(=N)N)cc2)cc1 (stereo not drawn) [Compound 47]")
"05 to 10 µg/mL"
>>> reported_measurement("CCCCCCN(CCCCCC)C(=O)C(Cc1ccccc1)NC(=N)N (stereo not drawn) [Compound 68, N^α -Amidino-Phe-dihexylamide]")
"0.5 to 1.0 µg/mL"
>>> reported_measurement("CCCCCCCCCCCCNC(=O)c1ccc(CNC(=N)N)cc1 [Compound 38, P-Guanidino-methyl-benzoyl-dodecylamide]")
"1 to 2 µg/mL"

* * *

test system: P. aeruginosa; assay: Antimicrobial assay (MIC, microtiter broth dilution); format: cell-based; settings: Table VI
measurement kind: MIC Psuedo

>>> reported_measurement("CCCCCCCCN(CCCCCCCC)C(=O)CCCCNC(=N)N [Compound 79, S-Guanidino Valeryl-dioctylamide]")
"> 256 µg/mL"
>>> reported_measurement("CCCCCCCCN(CCCCCCCC)C(=O)C(Cc1ccc(N)cc1)NC(=N)N (stereo not drawn) [Compound 88, N^α -Amidino-p-amino-Phe-dioctylamide]")
"32 µg/mL"
>>> reported_measurement("CCCCCCCCN(CCCCCCCC)C(=O)C(Cc1ccc(F)cc1)NC(=N)N (stereo not drawn) [Compound 83, N^α -Amidino-p-F-Phe-diocytlamide]")
"128 µg/mL"
>>> reported_measurement("CCCCCCCCN(CCCCCCCC)C(=O)C(CC1CCCCC1)NC(=N)N (stereo not drawn) [Compound 74, N^α -Amidino-Cha-dioctylamide]")
"> 256 µg/mL"
>>> reported_measurement("N=C(N)NC(Cc1ccccc1)C(=O)Nc1ccc(C=Cc2ccc(NC(=O)C(Cc3ccccc3)NC(=N)N)cc2)cc1 (stereo not drawn)")
"32 µg/mL"
>>> reported_measurement("CCCCCCCCN(CCCCCCCC)C(=O)[C@H](Cc1ccccc1)NC(=O)CC(O)CNC(=N)N (stereo partly drawn)")
"64 µg/mL"
